Provenance of the data: patent US9278527B2

- TEST: Hydrophilicity-hydrophobicity coefficient from water activity value of 20% aqueous solution (equation (A))
- Assay type: physicochemical
- STUDY CONDITIONS: 20% aqueous solution; water activity by chilled mirror dew point method (AquaLab CX-3TE) at 25° C.; equation (A)
For each of the compounds below, state its Hydrophilicity-hydrophobicity coefficient.

[[record]]
compound = "OCCOCCOCCO"
result = 0.07

[[record]]
compound = "CCCCC(O)CO (centres unmarked)"
result = 0.97

[[record]]
compound = "OC[C@@H](O)[C@@H](O)[C@H](O)[C@@H](O)CO"
result = 0.21


Dear reader, for each entry below, please note its Hydrophilicity-hydrophobicity coefficient.
1. CC(CCO)CCO
2. CC(C)(O)CCO
3. OCCCCCO
4. CC(O)C(O)CO (centres unmarked)
5. OCCC(O)CO (centres unmarked)

Key:
0.54
0.90
0.41
0.22
0.15
